- Target: PD-L1 (human)
- Sequence (chain, as listed by the source): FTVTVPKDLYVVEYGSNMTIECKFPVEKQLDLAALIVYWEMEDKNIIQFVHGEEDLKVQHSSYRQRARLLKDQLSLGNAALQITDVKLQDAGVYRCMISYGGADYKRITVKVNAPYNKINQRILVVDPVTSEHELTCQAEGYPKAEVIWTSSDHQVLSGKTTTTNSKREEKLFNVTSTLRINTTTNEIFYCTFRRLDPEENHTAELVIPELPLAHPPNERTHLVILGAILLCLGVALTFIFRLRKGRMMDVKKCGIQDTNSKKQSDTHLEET
- Protocol summary: flow cytometry, CHO cells expressing PD-L1
Measured metric: MFI at 33.3 nM (MFI)

variant CD80 R29H/E35D/M43V/M47I/I49V (Fc fusion) VIHVTKEVKEVATLSCGHNVSVEELAQTHIYWQKDKKMVLTMVSGDINVWPEYKNRTIFDITNNLSIVILALRPSDEGTYECVVLKYEKDAFKREHLAEVT; 1590
variant CD80 E35D/L85Q/K93T/E95V/L97Q (Fc fusion) VIHVTKEVKEVATLSCGHNVSVEELAQTRIYWQKDKKMVLTMMSGDMNIWPEYKNRTIFDITNNLSIVILALRPSDEGTYECVVQKYEKDAFTRVHQAEVT; 19900

[1] variant CD80 E35D/M47I/T62S/L85Q (Fc fusion) VIHVTKEVKEVATLSCGHNVSVEELAQTRIYWQKDKKMVLTMMSGDINIWPEYKNRTIFDISNNLSIVILALRPSDEGTYECVVQKYEKDAFKREHLAEVT
[2] variant CD80 E35D/D46E/M47V/N63D/L85Q (Fc fusion) VIHVTKEVKEVATLSCGHNVSVEELAQTRIYWQKDKKMVLTMMSGEVNIWPEYKNRTIFDITDNLSIVILALRPSDEGTYECVVQKYEKDAFKREHLAEVT
Determine, for 1 and 2 , which has the greater value of MFI at 33.3 nM. Write the label of whichever entry you select.
2
(2: 69800 MFI, 1: 45000 MFI)

Hello, the source for this data is patent US20250163127A1, in case you need it.
